- assayedTarget: T1, DR4G93: Human HLA-DRA1*01:02/DRB1*01:01 ECD with hemagglutinin peptide HA_304-318 (human)
- T1 construct: also called HLA-DR1 with HA_304-318
- measurementProtocol: MSD ECL; antigen coated; mAb 0.2 µg/ml
measuredQuantity: ECL signal (ECL)
The response must be a number in ECL with no trailing unit.

Consider the worked cases shown below.
{"binder": "DR4B4 (antibody, V domains shown, also called Lym-1 re-engineered as IgG2sigma) VH: QVQLKESGPGLVAPSQSLSITCTISGFSLTSYGVHWVRQPPGKGLEWLVVIWSDGSTTYNSALKSRLSISKDNSKSQVFLKMNSLQTDDTAIYYCASHYGSTLAFASWGHGTLVTVSA VL: DIQMTQSPASLSASVGETVTIICRASVNIYSYLAWYQQKQGKSPQLLVYNAKILAEGVPSRFSGSGSGTQFSLKINSLQPEDFGSYYCQHHYGPFTFGSGTKLEIK", "ECL signal (ECL)": 888000}
{"binder": "DR4B98 (antibody, human IgG2, kappa, V domains shown, also called VH DR4H50 / VL PH9L3) VH: QVQLVQSGAEVKKPGSSVKVSCKASGGTFKSYYIHWVRQAPGQGLEWMGGIAPIYGTAYYAQKFQGRVTITADESTSTAYMELSSLRSEDTAVYYCARDASWARAYGFDYWGQGTLVTVSS VL: EIVLTQSPATLSLSPGERATLSCRASQSVSSYLAWYQQKPGQAPRLLIYDASNRATGIPARFSGSGSGTDFTLTISSLEPEDFAVYYCQQRSNWPLTFGQGTKVEIKR", "ECL signal (ECL)": 140000}
{"binder": "DR4B30 (antibody, human IgG2, kappa, V domains shown, also called VH DR4H39 / VL PH9L3) VH: EVQLVQSGAEVKKPGESLKISCKGSGYSFTSDWIGWVRQMPGKGLEWMGIIRPGDSDTYYSPSFQGQVTISADKSISTAYLQWSSLKASDTAVYYCARESYYYVGVRYRPSYYFDYWGQGTLVTVSS VL: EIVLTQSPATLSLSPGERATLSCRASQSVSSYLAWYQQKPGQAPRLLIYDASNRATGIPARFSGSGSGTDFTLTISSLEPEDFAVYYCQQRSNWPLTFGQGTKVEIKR", "ECL signal (ECL)": "1.07e+06"}

Recall and state the measured ECL signal for DR4B6 (antibody, V domains shown, also called L243 re-engineered as IgG2sigma) VH: QIQLVQSGPELKKPGETVKISCKASGFTFTNYGMNWVKQAPGKGLKWMGWINTYTREPTYADDFKGRFAFSLETSASTAYLQINNLKNEDTAKYFCARDITAVVPTGFDYWGQGTTLTVSS VL: DIQMTQSPASLSVSVGETVTITCRASENIYSNLAWYRQKQGKSPQLLVFAASNLADGVPSRFSGSGSGTQYSLKINSLQSEDFGDYYCQHFWTTPWAFGGGTNLEIK .
1.32e+06

Recall and state the measured ECL signal for DR4B5 (antibody, V domains shown, also called apolizumab (1D10) re-engineered as IgG2sigma) VH: QVQLQESGPGLVKPSETLSLTCTVSGFSLTNYGVHWVRQSPGKGLEWIGVKWSGGSTEYNAAFISRLTISKDTSKNQVSLKLNSLTAADTAVYYCARNDRYAMDYWGQGTLVTVSS VL: DIQMTQSPSSLSASVGDRVTITCRASENIYSYLAWYQQKPGKAPKLLVSNAKTLAEGVPSRFSGSGSGKQFTLTISSLQPEDFATYYCQHHYGNSYPFGQGTKLEIK .
1.3e+06

Recall and state the measured ECL signal for DR4B127 (antibody, human IgG2, kappa, V domains shown, also called VH DR4H7 / VL PH9L3) VH: QVQLVQSGAEVKKPGSSVKVSCKASGGTFKSYYIHWVRQAPGQGLEWMGGIRPISGNAEYAQKFQGRVTITADESTSTAYMELSSLRSEDTAVYYCARDASYYRNYGFDYWGQGTLVTVSS VL: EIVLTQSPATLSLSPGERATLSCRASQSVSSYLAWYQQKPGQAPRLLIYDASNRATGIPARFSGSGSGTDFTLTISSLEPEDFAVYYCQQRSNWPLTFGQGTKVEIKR .
918000
